Listed molecules paired with reported Percent Effect
Biological target: Ubiquitin-activating enzyme e1, putative (Leishmania donovani (strain BPK282A1)) (UniProt E9BSI1)
Sequence (E9BSI1 as listed by the source): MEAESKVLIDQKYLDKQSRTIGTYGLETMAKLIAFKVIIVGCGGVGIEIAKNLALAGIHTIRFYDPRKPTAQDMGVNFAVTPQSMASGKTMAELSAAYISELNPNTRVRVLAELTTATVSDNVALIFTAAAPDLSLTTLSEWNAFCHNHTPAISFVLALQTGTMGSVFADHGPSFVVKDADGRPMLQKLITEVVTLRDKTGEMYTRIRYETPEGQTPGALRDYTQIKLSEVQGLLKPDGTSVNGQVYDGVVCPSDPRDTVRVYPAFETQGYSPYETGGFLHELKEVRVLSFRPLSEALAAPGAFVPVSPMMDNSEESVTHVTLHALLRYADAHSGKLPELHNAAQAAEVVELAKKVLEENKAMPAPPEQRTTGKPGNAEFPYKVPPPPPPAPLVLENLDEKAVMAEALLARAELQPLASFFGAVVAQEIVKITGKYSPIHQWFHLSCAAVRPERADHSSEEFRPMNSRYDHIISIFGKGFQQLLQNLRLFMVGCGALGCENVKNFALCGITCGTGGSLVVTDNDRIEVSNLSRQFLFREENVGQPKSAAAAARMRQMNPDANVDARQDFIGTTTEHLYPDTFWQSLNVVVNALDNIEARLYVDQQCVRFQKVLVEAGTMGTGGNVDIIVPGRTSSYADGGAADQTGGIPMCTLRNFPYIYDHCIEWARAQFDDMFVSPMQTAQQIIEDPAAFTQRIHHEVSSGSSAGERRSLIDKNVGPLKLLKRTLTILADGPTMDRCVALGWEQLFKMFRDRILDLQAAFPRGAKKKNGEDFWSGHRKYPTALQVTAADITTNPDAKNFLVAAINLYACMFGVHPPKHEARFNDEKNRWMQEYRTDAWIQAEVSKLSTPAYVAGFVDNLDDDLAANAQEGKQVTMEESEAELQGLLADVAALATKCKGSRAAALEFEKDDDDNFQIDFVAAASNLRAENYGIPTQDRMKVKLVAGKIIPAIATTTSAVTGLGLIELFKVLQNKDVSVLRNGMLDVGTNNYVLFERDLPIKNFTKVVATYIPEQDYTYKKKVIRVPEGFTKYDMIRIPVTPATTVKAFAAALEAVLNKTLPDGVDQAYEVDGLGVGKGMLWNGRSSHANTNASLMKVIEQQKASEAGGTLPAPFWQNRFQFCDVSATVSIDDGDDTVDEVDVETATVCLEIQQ
Experiment: Leishmania donovani Ubiquitin Activating Enzyme (LdE1)
Assay type: functional
Parameters: scale not given: direction of the effect not stated beside the values
Conditions: 30 µM
Measured potencies and affinities stand elsewhere.

# molecule, Percent Effect (%)
rows = [
    ("c1cnc2c(c1)cc([C@H]1CCCO1)n2CCN1CCCCC1", 9.46),
    ("Cc1cccc(NS(=O)(=O)c2cc(C(=O)O)oc2C)c1Cl", 0),
    ("Cc1nnc(NCC2(c3ccccc3)CC2)c(C#N)c1C", 0),
    ("Cc1cnc2n(c1=O)CC(C(=O)Nc1cccc3cccnc13)CS2 (stereo not given)", -2.74),
    ("O=C(COCc1ccccc1)N1CCCC(n2cncn2)C1 (stereo not given)", 16.2),
    ("CCN(CC)C(=O)c1ccc(-c2ccsc2)nc1C", 6.94),
    ("CCOCCCn1c(NC(=O)c2scnc2C)nc2ccccc21", -5.2),
    ("Cc1nc(CN2CCCC(N(C)Cc3nnsc3Cl)C2)no1 (stereo not given)", 5.2),
    ("CC(=O)N1CCN(Cc2csc(-c3cnn(C)c3)n2)CC1", 7.89),
    ("CC(=O)NCC(=O)N1Cc2nccn2CC(CN2CCCC2)C1 (stereo not given)", 5.41),
    ("CCn1c(CN(C)C)nnc1C1CCN(Cc2ccccc2)CC1", 10.4),
    ("CN(Cc1cn2c(n1)CN(C1CCOC1)CC2)Cc1ccco1 (stereo not given)", 5.33),
    ("COCCC(=O)N1CCC2(CN(Cc3ccc(OC)c(F)c3)C2)C1", 13.7),
    ("Cc1cc(C[C@@H]2CCC[C@H]2NCc2cc(C)c(O)c(C)c2)on1", 9.46),
    ("Cc1cc(C[C@@H]2COC[C@H]2NCc2ccccc2C(F)(F)F)on1", 4.05),
    ("CCOc1ccc(C#N)cc1NCC(=O)Nc1cc(F)ccc1F", -12.7),
    ("COCc1noc(-c2ccc(N(C)Cc3cc(C)no3)nc2)n1", 0),
    ("CC(=O)N1CCCC1c1cccc(Cc2ccccc2F)n1 (stereo not given)", -9.46),
    ("CC(C)c1cc2c(O)nc(CSCC(=O)O)nc2s1", 6.67),
    ("Cc1ccc(CN2CC[C@H]3[C@@H]2CCC(=O)N3CCN2CCCC2)s1", 10.7),
    ("CCn1nccc1CNC(=O)C1CC1", 10.4),
    ("Cc1cn(CC(=O)NC2CCN(S(C)(=O)=O)CC2)c2ccccc12", 0),
    ("N#Cc1ccc(CNCC2CCN(CCO)CC2)cc1", 5.48),
    ("CCn1cnnc1CNC(=O)NCC(c1cccs1)N1CCCC1 (stereo not given)", 18.2),
    ("COCCC(=O)N1CCN(C)c2ncccc2C1", 2.6),
]
